Origin of measurements: patent US20150284385A1

# target_or_system: DPP-4 (Mus musculus, UniProt P28843)
# Construct: Blood sample was processed to obtain plasma; from tissue; host or cells: plasma of male ICR mice
# Sequence (P28843 37-760 limits assumed): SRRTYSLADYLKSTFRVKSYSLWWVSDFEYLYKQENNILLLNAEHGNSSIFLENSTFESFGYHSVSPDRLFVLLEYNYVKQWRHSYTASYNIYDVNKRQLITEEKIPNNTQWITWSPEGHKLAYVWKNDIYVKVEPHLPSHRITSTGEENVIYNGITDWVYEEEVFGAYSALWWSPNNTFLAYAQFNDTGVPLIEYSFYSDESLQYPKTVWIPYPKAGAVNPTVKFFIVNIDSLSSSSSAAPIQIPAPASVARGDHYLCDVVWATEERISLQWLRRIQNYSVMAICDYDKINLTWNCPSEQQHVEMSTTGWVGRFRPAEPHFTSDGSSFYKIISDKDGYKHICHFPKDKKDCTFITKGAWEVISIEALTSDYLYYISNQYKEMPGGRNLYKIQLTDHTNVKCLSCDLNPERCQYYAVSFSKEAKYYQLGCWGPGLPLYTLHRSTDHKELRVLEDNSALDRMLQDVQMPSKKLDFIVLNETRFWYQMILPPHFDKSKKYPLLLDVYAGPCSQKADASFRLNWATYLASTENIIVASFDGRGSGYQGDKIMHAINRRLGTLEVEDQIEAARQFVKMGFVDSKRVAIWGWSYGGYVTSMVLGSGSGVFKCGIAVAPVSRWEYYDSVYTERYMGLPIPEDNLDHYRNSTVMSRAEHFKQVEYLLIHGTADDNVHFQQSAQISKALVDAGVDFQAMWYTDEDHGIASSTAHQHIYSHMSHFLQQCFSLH
# measurement_description: Plasma DPP-4 activity in mice after oral dosing
# Format: in vivo, ICR mice
# condition_parameters: Table 4 Test 3, mice plasma, oral 1 mg/kg, 2 h after dosing, read-out: DPP-4 Relative activity %
quantity_name: activity at 1 mg/kg (%)

Worked set:
// output activity at 1 mg/kg; input N[C@H]1Cc2c(nc3cc(-c4n[nH]c(=O)o4)ccn23)C[C@@H]1c1cc(F)c(F)cc1F ; system DPP-4 (Mus musculus, UniProt P28843)
7

// output activity at 1 mg/kg; input NC(=O)c1ccn2c3c(nc2c1)C[C@H](c1cc(F)c(F)cc1F)[C@@H](N)C3 [Refference 1, reference compound] ; system DPP-4 (Mus musculus, UniProt P28843)
17

1: N[C@H]1Cc2c(nc3cc(-c4nnco4)ccn23)C[C@@H]1c1cc(F)c(F)cc1F
2: Cn1nc(-c2ccn3c4c(nc3c2)C[C@H](c2cc(F)c(F)cc2F)[C@@H](N)C4)oc1=O
Lowest activity at 1 mg/kg? choose 1 or 2 Answer by quoting the chosen item's label.
2
(2: 5%, 1: 7.4%)
